Assay: qHTS RealTime-Glo MT Cell Viability Assay in HEK293 cells - 40 hour (AID 1224874); also: % is scaled to controls: 0 for no effect and ±100 for the full control effect; nearly all actives have a fitted effect of over 50% in size
Conditions: RealTime-Glo luminescence; stronger effect = lower value
From the text: U.S. Tox21 Program National Center for Advancing Translational Sciences [NCATS] NIH Chemical Genomics Center [NCGC] U.S. Environmental Protection Agency [EPA] National Institutes of Environmental Health Sciences [NIEHS] National Toxicology Program [NTP] U.S. Food and Drug Administration [FDA] Tox21 Assay Overview: Measure of cell viability is critical in the cell-base assay. Analysis of cell viability is necessary for the characterization of cell responses to cytotoxic drugs and environmental stress. […]
Inconclusive results are not listed. Activity calls are given as the source filed them. Calls follow the shape of the dose curve; as a rule, active = well fitted cell-killing curve with a large enough effect in the repeat runs; inconclusive = weak or mixed curves, or effect the other way; inactive = flat fitted curve, though single readings scatter.
Form field: max response (one value per entry).

Some compounds with known max response results, for comparison:
N=C(N)c1ccc2cc(OC(=O)c3ccc(N=C(N)N)cc3)ccc2c1; 1.38% (inactive)
CC1(C)C(O)C(C)(C)C1O (configuration not stated); 0.527% (inactive)

# return recorded max response for entry "Cc1ccc(=O)n(-c2ccccc2)c1"
1.08% (inactive)

# return recorded max response for entry "O=Cc1cccc([N+](=O)[O-])c1"
5.4% (inactive)

###

Molecular target: Androgen receptor (Homo sapiens)
Assay: qHTS assay to identify small molecule agonists of the androgen receptor (AR) signaling pathway using the MDA cell line (AID 743040; also: % is scaled to controls: 0 for no effect and ±100 for the full control effect; nearly all actives have a fitted effect of over 20% in size)
Settings: MDA-kb2 AR-luc cells, MMTV luciferase, 16 h; series mostly up to 70.3 µM
Active and inactive are the calls of the source. Calls come from the whole dose curve; as a rule, active = well fitted activation curve with a large enough effect in the repeat runs; inconclusive = weak or mixed curves; inactive = flat fitted curve, though single readings scatter.
PARAMETER_MEASURED: outcome

ClC(Cl)(Br)Br; inactive
NC(=O)COCCN1CCN(C(c2ccccc2)c2ccc(Cl)cc2)CC1 (stereo not drawn); inactive
CCn1nc(C(=O)O)c(=O)c2cc3c(cc21)OCO3; inactive

###

Test: A CellTox Green Cytotoxicity Assay to monitor cytotoxicity in HepG2 cells - 32 hour (AID 1224883); also: % is scaled to controls: 0 for no effect and ±100 for the full control effect; nearly all actives have a fitted effect of over 50% in size
Conditions: CellTox Green fluorescence; series mostly up to 76.8 µM
Results filed as inconclusive are left out. The source made the active and inactive calls. Calls come from the whole dose curve; as a rule, active = well fitted activation curve with a large enough effect in the repeat runs; inconclusive = weak or mixed curves; inactive = flat fitted curve, though single readings scatter.
PARAMETER_MEASURED: cytotoxicity increase

NC(=O)COCCN1CCN(C(c2ccccc2)c2ccc(Cl)cc2)CC1 (configuration not stated); inactive
C[C@H](NC(CCc1ccccc1)C(=O)O)C(=O)N1CCC[C@H]1C(=O)O (some centres not stated); inactive
CN1CCC(=C2c3ccccc3CC(=O)c3sccc32)CC1; inactive
Cc1c(NC(C)C)c(=O)n(-c2ccccc2)n1C; inactive

# return recorded cytotoxicity increase for entry COc1ccccc1OCC(O)CN1CCN(CC(=O)Nc2c(C)cccc2C)CC1 (configuration not stated)
inactive

# return recorded cytotoxicity increase for entry "C[C@H]1C[C@@H](O)CC(C)(C)C1"
inactive

# return recorded cytotoxicity increase for entry "NC(=O)c1ccc([N+](=O)[O-])cc1"
inactive

# return recorded cytotoxicity increase for entry "CCOC(=O)[C@H](CCc1ccccc1)N[C@@H](C)C(=O)N1[C@H](C(=O)O)C[C@@H]2CCC[C@@H]21"
inactive

# return recorded cytotoxicity increase for entry "COc1cc(C(=O)N2CCCCCCC2)cc(OC)c1OC"
inactive

# return recorded cytotoxicity increase for entry "O=C(CCCN1CCN(c2ccccn2)CC1)c1ccc(F)cc1"
inactive

# return recorded cytotoxicity increase for entry "Nc1ccc(S(=O)(=O)Nc2ccnn2-c2ccccc2)cc1"
3.28% [at 15.8 µM] (inactive)

# return recorded cytotoxicity increase for entry "c1ccc(CC2=NCCN2)cc1"
inactive

###

Assay: qHTS RealTime-Glo MT Cell Viability Assay in HEK293 cells - 40 hour (AID 1224874); also: % is scaled to controls: 0 for no effect and ±100 for the full control effect; nearly all actives have a fitted effect of over 50% in size
Settings: RealTime-Glo luminescence; stronger effect = lower value
Inconclusive results are not listed.
Form field: max response (one value per entry).
Give just the numeric value; % need not be written.

Some compounds with known max response results, for comparison:
CCOC(=O)[C@H](CCc1ccccc1)N[C@@H](C)C(=O)N1[C@H](C(=O)O)C[C@@H]2CCC[C@@H]21; 6.09
Cc1cc2c(cc1S(N)(=O)=O)S(=O)(=O)CCC2; 2.68
NS(=O)(=O)c1ccc(C(=O)O)cc1; -0.921
CN(C)CCCNCCCN(C)C; 5.75
CCOC(=O)Nc1ccc(NCc2ccc(F)cc2)nc1N; -2.14

# return recorded max response for entry OC(CCN1CCCCC1)(c1ccccc1)C1CC2C=CC1C2 (configuration not stated)
-10.3

# return recorded max response for entry "CC(C)(C)c1nnc(NS(=O)(=O)c2ccccc2)s1"
2.61

###

Assay: qHTS assay for small molecule agonists of the antioxidant response element (ARE) signaling pathway (AID 743202); also: % is scaled to controls: 0 for no effect and ±100 for the full control effect
Conditions: HepG2 ARE-bla reporter, beta-lactamase FRET, 16 h; series mostly up to 73.3 µM
Results filed as inconclusive are left out. Active and inactive are the calls of the source. The call rests on the fitted dose curve; in most records, active means well fitted activation curve with a large enough effect in the signal ratio in the repeat runs (not every such curve was filed as active); inconclusive means weak or mixed curves, or effect the other way; inactive means no such curve, though single readings can be large or run the other way; the % refers to the signal ratio.
PARAMETER_MEASURED: activation

FC(F)OC(Cl)C(F)(F)F (stereo unspecified); inactive
C=C[Si](OC(=C)C)(OC(=C)C)OC(=C)C; inactive
c1cnc(N2CCN(Cc3ccc4c(c3)OCO4)CC2)nc1; inactive
Cc1cccn2c(=O)c(-c3nnn[nH]3)cnc12; inactive
NS(=O)(=O)c1cc(C(=O)O)cc(N2CCCC2)c1Oc1ccccc1; inactive
CCC(C)S (stereo unspecified); 1.05% [at 3.74 µM] (inactive)

# return recorded activation for entry NC(CSCC(=O)O)C(=O)O (stereo unspecified)
inactive

# return recorded activation for entry CO[Si](CCCOCC1CO1)(OC)OC (stereo unspecified)
inactive

# return recorded activation for entry "CO/N=C(/C(=O)N[C@@H]1C(=O)N2C(C(=O)OCOC(=O)C(C)(C)C)=C(C)CS[C@H]12)c1csc(N)n1"
inactive

# return recorded activation for entry CC(C)=CCCC(C)CC(=O)O (stereo unspecified)
inactive

# return recorded activation for entry "O=C(O)c1ccccc1OP(=O)(O)O"
inactive

# return recorded activation for entry "O=C1CCCCCCCCCCCN1"
inactive

# return recorded activation for entry COCCc1ccc(OCC(O)CNC(C)C)cc1 (stereo unspecified)
inactive

# return recorded activation for entry "CCN1CCC[C@H]1CNC(=O)c1cc(S(N)(=O)=O)ccc1OC"
inactive

###

Experiment: qHTS assay for identifying genotoxic compounds that show differential cytotoxicity against isogenic chicken DT40 cell lines with known DNA damage response pathways - Rad54/Ku70 mutant cell line (AID 743015); also: nearly all actives have a fitted effect of over 60% in size; also: potency is read from the fitted curve at half-maximal effect
Details: DT40 Rad54/Ku70 mutant viability, CellTiter-Glo, 40 h; series mostly up to 66.8 µM
Records with an inconclusive call do not appear. Activity calls are given as the source filed them. Calls come from the whole dose curve; as a rule, active = well fitted cell-killing curve with a large enough effect in the repeat runs; inconclusive = weak or mixed curves; inactive = no such curve, though single readings can be large or run the other way.
PARAMETER_MEASURED: Potency

Some compounds with known Potency results, for comparison:
CC(=O)OCC(=O)[C@@]1(O)CC[C@H]2[C@@H]3CCC4=CC(=O)CC[C@]4(C)[C@H]3C(=O)C[C@@]21C; inactive
COC(=O)c1c(Cl)c(Cl)c(C(=O)OC)c(Cl)c1Cl; inactive
CC/C=C\CCOC(C)=O; inactive
N#Cc1ccc(C2CCCc3cncn32)cc1 (stereo not drawn); inactive
NC(=O)c1ccc([N+](=O)[O-])cc1; inactive
COC(C)(C)CCCC(C)CC=O (stereo not drawn); inactive
CC(C)OC(=O)c1ccccc1; inactive
CCOC(=O)c1cccc(N)c1; inactive
CC/C=C\CC/C=C/C(OCC)OCC; 61.1 µM (active)
Nc1nc2c(ncn2COC(CO)CO)c(=O)[nH]1; 8.04 µM (active)

--- query ---
# return recorded Potency for entry "COC(=O)CC(C)=O"
inactive

###

Assay: qHTS assay to test for compound auto fluorescence at 535 nm (green) in HepG2 cells (AID 720675); also: % is scaled to controls: 0 for no effect and ±100 for the full control effect
Conditions: green autofluorescence 485/535 nm, 1 h; series mostly up to 46 µM
Active and inactive are the calls of the source. Calls follow the shape of the dose curve; as a rule, active = well fitted curve in the direction sought with a large enough effect in the repeat runs; inconclusive = weak or mixed curves; inactive = flat fitted curve, though single readings scatter.
PARAMETER_MEASURED: fluorescence, % of fluorescein control

Some compounds with known fluorescence, % of fluorescein control results, for comparison:
CCN(CC)CCOCCOC(=O)C1(c2ccccc2)CCCC1; inactive
CN(C)CCCN1c2ccccc2CCc2ccc(Cl)cc21; inactive
CO/N=C(/C(=O)N[C@@H]1C(=O)N2C(C(=O)OCOC(=O)C(C)(C)C)=C(C)CS[C@H]12)c1csc(N)n1; inactive
CCCCC(CC)COC(=O)c1ccccc1O (stereo not drawn); inactive
CC(=O)OCC(CCn1cnc2cnc(N)nc21)COC(C)=O; inactive

# return recorded fluorescence, % of fluorescein control for entry CC(C)=CCCC(C)CC(=O)O (stereo not drawn)
inactive

# return recorded fluorescence, % of fluorescein control for entry "N=C(N)c1ccc(OCCCOc2ccc(C(=N)N)cc2)cc1"
inactive

###

Assay: qHTS assay to identify small molecule antagonists of the sonic hedgehog signaling (Shh) pathway (AID 1259369); also: % is scaled to controls: 0 for no effect and ±100 for the full control effect; nearly all actives have a fitted effect of over 45% in size
Settings: NIH/3T3 Gli1-Luc reporter, Shh antagonist, luminescence 24 h; series mostly up to 42.5 µM
Records with an inconclusive call do not appear. The source made the active and inactive calls. Calls come from the whole dose curve.
PARAMETER_MEASURED: activity change, negative = inhibition

Some compounds with known activity change, negative = inhibition results, for comparison:
CN1CCCC1; inactive
CN(C)CCCNCCCN(C)C; inactive
N=C(N)c1ccccc1; inactive
O=C(O)CNC(=O)c1ccc([N+](=O)[O-])cc1; inactive
CCCCCCCCS(=O)(=O)Cl; inactive

--- query ---
# return recorded activity change, negative = inhibition for entry "CCc1ccc(O)c(OC)c1"
inactive
